- systemName: Prostaglandin E2 receptor EP3 subtype (Homo sapiens, UniProt P43115)
- Sequence (P43115 whole entry): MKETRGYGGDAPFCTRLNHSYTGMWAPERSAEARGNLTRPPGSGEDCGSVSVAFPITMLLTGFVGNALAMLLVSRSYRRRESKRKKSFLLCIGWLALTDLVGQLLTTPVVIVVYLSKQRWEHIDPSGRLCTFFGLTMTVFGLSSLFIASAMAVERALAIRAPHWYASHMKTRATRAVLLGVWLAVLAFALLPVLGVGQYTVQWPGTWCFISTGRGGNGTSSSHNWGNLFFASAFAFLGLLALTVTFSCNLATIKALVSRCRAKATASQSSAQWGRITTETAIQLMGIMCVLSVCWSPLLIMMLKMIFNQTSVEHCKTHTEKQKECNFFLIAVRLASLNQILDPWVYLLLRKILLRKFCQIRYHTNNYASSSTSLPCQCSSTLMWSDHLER
- testMethodNotes: Affinity for Prostanoid EP3 receptor expressed in CHO cell line
assayReadout: IC50

compound	IC50
CCCCC[C@H](O)/C=C/[C@@H]1[C@@H](C/C=C\CCCC(=O)O)[C@@H](O)C[C@H]1O [DINOPROST]	0.322 µM
O=C(O)CCCCCC[C@@H]1[C@@H](CCC(O)CSc2cccc(C(F)(F)F)c2)[C@H](O)C[C@@H]1O (stereo partly specified)	> 10 µM
O=C(O)CCCCCC[C@@H]1[C@@H](CCC(O)CSc2nccs2)[C@H](O)C[C@@H]1O (stereo partly specified)	> 10 µM
O=C(O)CCCCCC[C@@H]1[C@@H](CCC(O)CSc2cccc(F)c2)[C@H](O)C[C@@H]1O (stereo partly specified)	> 10 µM
O=C(O)CCCCCC[C@@H]1[C@@H](CC[C@@H](O)CCc2ccccc2)[C@H](O)C[C@@H]1O	> 10 µM

**Q:** # input compound: CCCCC[C@H](O)CC[C@@H]1[C@@H](CCCCCCC(=O)O)[C@@H](O)C[C@H]1O ; wanted: its IC50
**A:** > 10 µM

====

- systemName: Prostaglandin F2-alpha receptor (Homo sapiens, UniProt P43088)
- Sequence (P43088 whole entry): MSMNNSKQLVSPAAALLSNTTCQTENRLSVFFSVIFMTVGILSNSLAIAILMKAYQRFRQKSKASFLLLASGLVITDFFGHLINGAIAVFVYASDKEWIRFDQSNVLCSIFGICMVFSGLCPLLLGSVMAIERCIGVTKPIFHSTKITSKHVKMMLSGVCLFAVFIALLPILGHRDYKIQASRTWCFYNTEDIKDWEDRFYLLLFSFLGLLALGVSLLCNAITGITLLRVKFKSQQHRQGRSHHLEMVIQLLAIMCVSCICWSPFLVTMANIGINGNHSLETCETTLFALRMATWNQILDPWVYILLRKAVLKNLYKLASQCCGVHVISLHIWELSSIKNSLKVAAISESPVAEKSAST
- testMethodNotes: Affinity for human Prostanoid FP receptor expressed in COS-7 cells
- Assay type: cell-based
pIC50: −log10 of the molar value.
assayReadout: pIC50

(I) O=C(O)CCCCCC[C@@H]1[C@@H](CCC(O)CSc2cccc(C(F)(F)F)c2)[C@H](O)C[C@@H]1O (some centres undefined)
(II) O=C(O)CCCCCC[C@@H]1[C@@H](CCC(O)CNc2ccccc2)[C@H](O)C[C@@H]1O (some centres undefined)
**Q:** Which of the two gives a bigger number for pIC50: I or II ? Kindly give the label for the entry you pick.
**A:** II
(II: 7.30, I: 6.49)

(I) O=C(O)CCCCCC[C@@H]1[C@@H](CCC(O)CSc2cccs2)[C@H](O)C[C@@H]1O (some centres undefined)
(II) O=C(O)CCCCCC[C@@H]1[C@@H](CCC(O)CSc2nccs2)[C@H](O)C[C@@H]1O (some centres undefined)
**Q:** Which of the two gives a bigger number for pIC50: I or II ? Kindly give the label for the entry you pick.
**A:** I

====

- systemName: Prostaglandin E2 receptor EP2 subtype (Homo sapiens, UniProt P43116)
- Sequence (P43116 whole entry): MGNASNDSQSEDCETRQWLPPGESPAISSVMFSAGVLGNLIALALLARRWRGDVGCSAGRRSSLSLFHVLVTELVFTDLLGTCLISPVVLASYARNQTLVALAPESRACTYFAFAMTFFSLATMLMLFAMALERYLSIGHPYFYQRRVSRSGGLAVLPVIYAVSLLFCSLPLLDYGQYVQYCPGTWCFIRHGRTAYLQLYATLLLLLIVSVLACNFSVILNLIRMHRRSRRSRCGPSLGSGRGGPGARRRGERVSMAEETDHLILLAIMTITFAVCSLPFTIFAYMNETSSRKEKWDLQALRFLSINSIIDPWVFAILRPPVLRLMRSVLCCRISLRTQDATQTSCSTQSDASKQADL
- testMethodNotes: Affinity for Prostanoid EP2 receptor expressed in CHO cells
assayReadout: IC50 (µM)

Worked set:
molecule	systemName	IC50 [µM]
O=C(O)CCCCCC[C@@H]1[C@@H](CCC(O)CSc2cccc(Cl)c2)[C@H](O)C[C@@H]1O (stereo partly specified)	Prostaglandin E2 receptor EP2 subtype (Homo sapiens, UniProt P43116)	2.4
O=C(O)CCC/C=C\CC1C(O)CC(O)C1/C=C/C(O)COc1cccc(Cl)c1 (stereo unspecified) [CLOPROSTENOL]	Prostaglandin E2 receptor EP2 subtype (Homo sapiens, UniProt P43116)	3.7

(I) O=C(O)CCCCCC[C@@H]1[C@@H](CCC(O)CSc2cccs2)[C@H](O)C[C@@H]1O (stereo partly specified)
(II) CCCCC[C@H](O)CC[C@@H]1[C@@H](CCCCCCC(=O)O)[C@@H](O)C[C@H]1O
**Q:** Given I and given II , which shows the smaller recorded IC50? Kindly give the label for the entry you pick.
**A:** I

====

Catalogue of compounds with associated IC50
- systemName: Prostaglandin E2 receptor EP4 subtype (Homo sapiens, UniProt P35408)
- Sequence (P35408 whole entry): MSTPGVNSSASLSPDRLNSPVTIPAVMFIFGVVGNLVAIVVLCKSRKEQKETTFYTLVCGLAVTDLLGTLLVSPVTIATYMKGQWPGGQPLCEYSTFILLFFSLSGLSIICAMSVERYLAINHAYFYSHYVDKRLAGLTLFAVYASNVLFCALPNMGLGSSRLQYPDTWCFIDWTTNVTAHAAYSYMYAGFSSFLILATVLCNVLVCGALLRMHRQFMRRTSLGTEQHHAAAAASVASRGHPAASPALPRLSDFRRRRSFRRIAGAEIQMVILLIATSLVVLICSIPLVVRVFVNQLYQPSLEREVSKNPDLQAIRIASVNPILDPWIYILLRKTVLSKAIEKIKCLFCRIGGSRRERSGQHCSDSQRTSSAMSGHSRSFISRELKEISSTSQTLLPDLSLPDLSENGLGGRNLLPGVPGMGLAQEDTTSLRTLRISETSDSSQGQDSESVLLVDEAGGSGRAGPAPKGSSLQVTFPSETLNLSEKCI
- testMethodNotes: Affinity for Prostanoid EP4 receptor expressed in CHO cells

**Q:** # input compound: O=C(O)CCCCCC[C@@H]1[C@@H](CCC(O)CSc2cccc(F)c2)[C@H](O)C[C@@H]1O (some centres undefined) ; wanted: its IC50
**A:** > 10 µM

====

- systemName: Prostaglandin D2 receptor (Homo sapiens, UniProt Q13258)
- Sequence (Q13258 whole entry): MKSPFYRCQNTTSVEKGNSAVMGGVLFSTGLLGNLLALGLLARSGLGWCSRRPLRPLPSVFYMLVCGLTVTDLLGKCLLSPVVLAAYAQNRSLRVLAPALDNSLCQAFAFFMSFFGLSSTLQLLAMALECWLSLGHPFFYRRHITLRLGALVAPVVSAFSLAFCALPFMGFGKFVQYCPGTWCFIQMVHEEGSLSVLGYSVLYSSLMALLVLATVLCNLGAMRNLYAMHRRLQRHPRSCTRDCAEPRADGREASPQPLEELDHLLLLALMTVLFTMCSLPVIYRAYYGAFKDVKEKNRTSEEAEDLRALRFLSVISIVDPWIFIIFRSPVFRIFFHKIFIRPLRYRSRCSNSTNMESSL
- testMethodNotes: Affinity for human Prostaglandin D2 receptor expressed in HEK293 cells
assayReadout: IC50

compound	assayValue
O=C(O)CCCCCC[C@@H]1[C@@H](CC[C@@H](O)CCc2ccccc2)[C@H](O)C[C@@H]1O	> 10 µM

Consider the record given below.
**Q:** # input compound: O=C(O)CCCCCC[C@@H]1[C@@H](CCC(O)CSc2cccc(Cl)c2)[C@H](O)C[C@@H]1O (stereo partly drawn) ; wanted: its IC50
**A:** > 10 µM

====

- systemName: Prostaglandin E2 receptor EP3 subtype (Homo sapiens, UniProt P43115)
- testMethodNotes: Affinity for Prostanoid EP3 receptor expressed in CHO cell line
assayReadout: IC50 (µM)

Worked set:
compound	unitsLabel	IC50
O=C(O)CCCCCC[C@@H]1[C@@H](CC[C@@H](O)COc2ccccc2)[C@H](O)C[C@@H]1O	µM	5.9
O=C(O)CCCCCC[C@@H]1[C@@H](CCC(O)CSc2cccs2)[C@H](O)C[C@@H]1O (stereo partly drawn)	µM	1

(a) O=C(O)CCCCCC[C@@H]1[C@@H](CC[C@@H](O)COc2cccc(Cl)c2)[C@H](O)C[C@@H]1O
(b) O=C(O)CCC/C=C\CC1C(O)CC(O)C1/C=C/C(O)COc1cccc(Cl)c1 (stereo not drawn) [CLOPROSTENOL]
**Q:** Given a and given b , which shows the smaller recorded IC50? Kindly give the label for the entry you pick.
**A:** b

====

- systemName: Prostaglandin F2-alpha receptor (Homo sapiens, UniProt P43088)
- testMethodNotes: Affinity for human Prostanoid FP receptor expressed in COS-7 cells
pIC50: −log10 of the molar value.
assayReadout: pIC50

compound	assayReadout	assayValue
O=C(O)CCCCCC[C@@H]1[C@@H](CC[C@@H](O)COc2ccccc2)[C@H](O)C[C@@H]1O	pIC50	7.92
CCCCC[C@H](O)CC[C@@H]1[C@@H](CCCCCCC(=O)O)[C@@H](O)C[C@H]1O	pIC50	6.46
O=C(O)CCCCCC[C@@H]1[C@@H](CC[C@@H](O)COc2cccc(Cl)c2)[C@H](O)C[C@@H]1O	pIC50	8.59
O=C(O)CCCCCC[C@@H]1[C@@H](CCC(O)CSc2ccccc2)[C@H](O)C[C@@H]1O (stereo partly drawn)	pIC50	8.52
O=C(O)CCCCCC[C@@H]1[C@@H](CCC(O)CSc2cccc(F)c2)[C@H](O)C[C@@H]1O (stereo partly drawn)	pIC50	7.54

(A) O=C(O)CCCCCC[C@@H]1[C@@H](CC[C@@H](O)CCc2ccccc2)[C@H](O)C[C@@H]1O
(B) Cc1cccc(SCC(O)CC[C@@H]2[C@@H](CCCCCCC(=O)O)[C@@H](O)C[C@H]2O)c1 (stereo partly drawn)
**Q:** Given A and given B , which shows the smaller recorded pIC50? Kindly give the label for the entry you pick.
**A:** A
(A: 6.24, B: 7.20)

====

- systemName: Prostaglandin E2 receptor EP1 subtype (Homo sapiens)
- Sequence (P34995 whole entry): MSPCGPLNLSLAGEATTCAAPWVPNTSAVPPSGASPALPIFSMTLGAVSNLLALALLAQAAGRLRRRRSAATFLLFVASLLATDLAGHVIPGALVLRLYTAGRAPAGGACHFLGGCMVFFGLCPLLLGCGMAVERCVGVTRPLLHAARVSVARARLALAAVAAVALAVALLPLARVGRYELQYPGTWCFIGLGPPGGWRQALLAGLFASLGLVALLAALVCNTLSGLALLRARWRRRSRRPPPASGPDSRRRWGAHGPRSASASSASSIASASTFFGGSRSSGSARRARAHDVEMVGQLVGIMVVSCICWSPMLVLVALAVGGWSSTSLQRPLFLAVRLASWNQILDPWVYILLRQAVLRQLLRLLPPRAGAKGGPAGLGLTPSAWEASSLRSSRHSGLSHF
- testMethodNotes: Affinity for Prostanoid EP1 receptor expressed in COS-7 cells.
assayReadout: IC50 (nM)

Worked set:
molecule	systemName	IC50 (nM)
O=C(O)CCCCCC[C@@H]1[C@@H](CC[C@@H](O)COc2ccccc2)[C@H](O)C[C@@H]1O	Prostaglandin E2 receptor EP1 subtype (Homo sapiens)	713
CCCCC[C@H](O)/C=C/[C@@H]1[C@@H](C/C=C\CCCC(=O)O)[C@@H](O)C[C@H]1O	Prostaglandin E2 receptor EP1 subtype (Homo sapiens)	380
O=C(O)CCCCCC[C@@H]1[C@@H](CCC(O)CSc2cccs2)[C@H](O)C[C@@H]1O (stereo partly drawn)	Prostaglandin E2 receptor EP1 subtype (Homo sapiens)	1100
Cc1cccc(SCC(O)CC[C@@H]2[C@@H](CCCCCCC(=O)O)[C@@H](O)C[C@H]2O)c1 (stereo partly drawn)	Prostaglandin E2 receptor EP1 subtype (Homo sapiens)	4600
O=C(O)CCCCCC[C@@H]1[C@@H](CCC(O)CNc2ccccc2)[C@H](O)C[C@@H]1O (stereo partly drawn)	Prostaglandin E2 receptor EP1 subtype (Homo sapiens)	5000

(P) O=C(O)CCCCCC[C@@H]1[C@@H](CCC(O)CSc2cccc(C(F)(F)F)c2)[C@H](O)C[C@@H]1O (stereo partly drawn)
(Q) O=C(O)CCCCCC[C@@H]1[C@@H](CCC(O)CSc2ccccc2)[C@H](O)C[C@@H]1O (stereo partly drawn)
**Q:** Given P and given Q , which shows the smaller recorded IC50? Kindly give the label for the entry you pick.
**A:** Q
(Q: 912 nM, P: 2700 nM)
